- Tested on: SW 900
- methodNotes: relative viability (nuclei count vs DMSO), 5 days (fraction); higher = more cells survive
- studyConditions: first compound 0.1 µM
For each of the compounds below, state its relative viability.
Give bare numbers.

[
  {
    "compound": "Cc1cn(-c2cc(NC(=O)c3ccc(C)c(Nc4nccc(-c5cccnc5)n4)c3)cc(C(F)(F)F)c2)cn1 [Nilotinib] + Cc1cc(Nc2cc(N3CCN(C)CC3)nc(Sc3ccc(NC(=O)C4CC4)cc3)n2)n[nH]1 [Tozasertib] (partner 0.1 µM)",
    "relative viability": 0.262
  },
  {
    "compound": "Cc1cn(-c2cc(NC(=O)c3ccc(C)c(Nc4nccc(-c5cccnc5)n4)c3)cc(C(F)(F)F)c2)cn1 [Nilotinib] + NC(=O)Nc1cc(-c2cccc(F)c2)sc1C(=O)N[C@H]1CCCNC1 [AZD7762] (partner 0.2 µM)",
    "relative viability": 0.304
  },
  {
    "compound": "Cc1cn(-c2cc(NC(=O)c3ccc(C)c(Nc4nccc(-c5cccnc5)n4)c3)cc(C(F)(F)F)c2)cn1 [Nilotinib] + CCNC(=O)c1noc(-c2cc(C(C)C)c(O)cc2O)c1-c1ccc(CN2CCOCC2)cc1 [Luminespib] (partner 0.01 µM)",
    "relative viability": 0.198
  }
]

// next item, relative viability requested
Quickly give me recorded relative viability for Cc1cn(-c2cc(NC(=O)c3ccc(C)c(Nc4nccc(-c5cccnc5)n4)c3)cc(C(F)(F)F)c2)cn1 [Nilotinib] + COc1cccc2cc(-c3nc([C@H]4CC[C@H](C(=O)O)CC4)n4ncnc(N)c34)[nH]c12 [OSI-027] (partner 0.5 µM)
0.465

* * *

For each of the molecules below, state its relative viability.
- Test system: NCI-H727
- methodNotes: relative viability (nuclei count vs DMSO), 5 days (fraction); higher = more cells survive
- studyConditions: first compound 0.253 µM

[
  {
    "molecule": "Nc1cccc2c1CN(C1CCC(=O)NC1=O)C2=O (centres undefined) [Lenalidomide] + NC(=O)Nc1cc(-c2cccc(F)c2)sc1C(=O)N[C@H]1CCCNC1 [AZD7762] (partner 0.2 µM)",
    "targetEntity": "NCI-H727",
    "relative viability": 0.655
  }
]

For every item in the list below, what is its measured relative viability?
1. Nc1cccc2c1CN(C1CCC(=O)NC1=O)C2=O (centres undefined) [Lenalidomide] + CC(=O)Nc1cccc(-n2c(=O)n(C3CC3)c(=O)c3c(Nc4ccc(I)cc4F)n(C)c(=O)c(C)c32)c1 [Trametinib] (partner 0.02 µM)
2. Nc1cccc2c1CN(C1CCC(=O)NC1=O)C2=O (centres undefined) [Lenalidomide] + CC(C)C[C@H](NC(=O)[C@H](Cc1ccccc1)NC(=O)c1cnccn1)B(O)O [Bortezomib] (partner 0.002 µM)
3. Nc1cccc2c1CN(C1CCC(=O)NC1=O)C2=O (centres undefined) [Lenalidomide] + O=C(CCCCCCC(=O)Nc1ccccc1)NO [Vorinostat] (partner 1 µM)
4. Nc1cccc2c1CN(C1CCC(=O)NC1=O)C2=O (centres undefined) [Lenalidomide] + N=C(N)NC(=N)NCCc1ccccc1 [Phenformin] (partner 250 µM)
5. Nc1cccc2c1CN(C1CCC(=O)NC1=O)C2=O (centres undefined) [Lenalidomide] + CCNC(=O)c1noc(-c2cc(C(C)C)c(O)cc2O)c1-c1ccc(CN2CCOCC2)cc1 [Luminespib] (partner 0.01 µM)
6. Nc1cccc2c1CN(C1CCC(=O)NC1=O)C2=O (centres undefined) [Lenalidomide] + CC(=O)c1c(C)c2cnc(Nc3ccc(N4CCNCC4)cn3)nc2n(C2CCCC2)c1=O [Palbociclib] (partner 0.5 µM)

1. 0.383
2. 0.81
3. 1.26
4. 0.613
5. 0.45
6. 0.697

For every item in the list below, what is its measured relative viability?
1. Nc1cccc2c1CN(C1CCC(=O)NC1=O)C2=O (centres undefined) [Lenalidomide] + C[C@@H](Oc1cc(-c2cnn(C3CCNCC3)c2)cnc1N)c1c(Cl)ccc(F)c1Cl [Crizotinib] (partner 1 µM)
2. Nc1cccc2c1CN(C1CCC(=O)NC1=O)C2=O (centres undefined) [Lenalidomide] + COc1cccc2cc(-c3nc([C@H]4CC[C@H](C(=O)O)CC4)n4ncnc(N)c34)[nH]c12 [OSI-027] (partner 0.5 µM)

1. 0.83
2. 0.523

* * *

For each of the compounds below, state its relative viability.
- Tested on: A-427
- methodNotes: relative viability (nuclei count vs DMSO), 5 days (fraction); higher = more cells survive
- studyConditions: first compound 0.001 µM
Answers are plain numbers.

[
  {
    "compound": "Cc1cn(-c2cc(NC(=O)c3ccc(C)c(Nc4nccc(-c5cccnc5)n4)c3)cc(C(F)(F)F)c2)cn1 [Nilotinib] + Cc1cc(Nc2cc(N3CCN(C)CC3)nc(Sc3ccc(NC(=O)C4CC4)cc3)n2)n[nH]1 [Tozasertib] (partner 0.1 µM)",
    "metric": "relative viability",
    "assayValue": 0.168
  }
]

For every item in the list below, what is its measured relative viability?
1. Cc1cn(-c2cc(NC(=O)c3ccc(C)c(Nc4nccc(-c5cccnc5)n4)c3)cc(C(F)(F)F)c2)cn1 [Nilotinib] + CC(=O)c1c(C)c2cnc(Nc3ccc(N4CCNCC4)cn3)nc2n(C2CCCC2)c1=O [Palbociclib] (partner 0.5 µM)
2. Cc1cn(-c2cc(NC(=O)c3ccc(C)c(Nc4nccc(-c5cccnc5)n4)c3)cc(C(F)(F)F)c2)cn1 [Nilotinib] + CS(=O)(=O)CCNCc1ccc(-c2ccc3ncnc(Nc4ccc(OCc5cccc(F)c5)c(Cl)c4)c3c2)o1 [Lapatinib] (partner 2 µM)
3. Cc1cn(-c2cc(NC(=O)c3ccc(C)c(Nc4nccc(-c5cccnc5)n4)c3)cc(C(F)(F)F)c2)cn1 [Nilotinib] + CC(=O)Nc1cccc(-n2c(=O)n(C3CC3)c(=O)c3c(Nc4ccc(I)cc4F)n(C)c(=O)c(C)c32)c1 [Trametinib] (partner 0.02 µM)

0.51
1.05
0.812

* * *

- System: NCI-H3122
- methodNotes: relative viability (nuclei count vs DMSO), 5 days (fraction); higher = more cells survive
- studyConditions: first compound 0.2 µM
metric: relative viability

[
  {
    "molecule": "CCNC(=O)c1noc(-c2cc(C(C)C)c(O)cc2O)c1-c1ccc(CN2CCOCC2)cc1 [Luminespib] + N=C(N)NC(=N)NCCc1ccccc1 [Phenformin] (partner 250 µM)",
    "metric": "relative viability",
    "assayValue": 0.0895
  }
]

For every item in the list below, what is its measured relative viability?
1. Cc1csc(=NC2CCCCC2)n1/N=C/c1ccc(O)c(O)c1O [MIM1] + O=C(CCCCCCC(=O)Nc1ccccc1)NO [Vorinostat] (partner 1 µM)
2. CCNC(=O)c1noc(-c2cc(C(C)C)c(O)cc2O)c1-c1ccc(CN2CCOCC2)cc1 [Luminespib] + O=C(c1cc(Cc2n[nH]c(=O)c3ccccc23)ccc1F)N1CCN(C(=O)C2CC2)CC1 [Olaparib] (partner 8 µM)
3. CCNC(=O)c1noc(-c2cc(C(C)C)c(O)cc2O)c1-c1ccc(CN2CCOCC2)cc1 [Luminespib] + Cc1cc(Nc2cc(N3CCN(C)CC3)nc(Sc3ccc(NC(=O)C4CC4)cc3)n2)n[nH]1 [Tozasertib] (partner 0.1 µM)
4. Cc1csc(=NC2CCCCC2)n1/N=C/c1ccc(O)c(O)c1O [MIM1] + CCNC(=O)c1noc(-c2cc(C(C)C)c(O)cc2O)c1-c1ccc(CN2CCOCC2)cc1 [Luminespib] (partner 0.01 µM)

1. 0.959
2. 0.646
3. 0.0832
4. 0.0956

* * *

- Tested on: NCI-H1734
- methodNotes: relative viability (nuclei count vs DMSO), 5 days (fraction); higher = more cells survive
- studyConditions: first compound 0.001 µM
For each of the compounds below, state its relative viability.
Numbers only.

[
  {
    "compound": "Cc1cn(-c2cc(NC(=O)c3ccc(C)c(Nc4nccc(-c5cccnc5)n4)c3)cc(C(F)(F)F)c2)cn1 [Nilotinib] + Nc1nc2[nH]cc(CCc3ccc(C(=O)N[C@@H](CCC(=O)O)C(=O)O)cc3)c2c(=O)[nH]1 [Pemetrexed] (partner 0.2 µM)",
    "relative viability": 0.443
  },
  {
    "compound": "Cc1cn(-c2cc(NC(=O)c3ccc(C)c(Nc4nccc(-c5cccnc5)n4)c3)cc(C(F)(F)F)c2)cn1 [Nilotinib] + Nc1ncn([C@H]2C[C@H](O)[C@@H](CO)O2)c(=O)n1 [Decitabine] (partner 2 µM)",
    "relative viability": 0.526
  },
  {
    "compound": "Cc1cn(-c2cc(NC(=O)c3ccc(C)c(Nc4nccc(-c5cccnc5)n4)c3)cc(C(F)(F)F)c2)cn1 [Nilotinib] + CC(C)C[C@H](NC(=O)[C@H](Cc1ccccc1)NC(=O)c1cnccn1)B(O)O [Bortezomib] (partner 0.002 µM)",
    "relative viability": 0.877
  }
]

For every item in the list below, what is its measured relative viability?
1. Cc1cn(-c2cc(NC(=O)c3ccc(C)c(Nc4nccc(-c5cccnc5)n4)c3)cc(C(F)(F)F)c2)cn1 [Nilotinib] + CCNC(=O)c1noc(-c2cc(C(C)C)c(O)cc2O)c1-c1ccc(CN2CCOCC2)cc1 [Luminespib] (partner 0.01 µM)
2. Cc1cn(-c2cc(NC(=O)c3ccc(C)c(Nc4nccc(-c5cccnc5)n4)c3)cc(C(F)(F)F)c2)cn1 [Nilotinib] + O=C(c1cc(Cc2n[nH]c(=O)c3ccccc23)ccc1F)N1CCN(C(=O)C2CC2)CC1 [Olaparib] (partner 8 µM)
3. Cc1cn(-c2cc(NC(=O)c3ccc(C)c(Nc4nccc(-c5cccnc5)n4)c3)cc(C(F)(F)F)c2)cn1 [Nilotinib] + Cc1cc(Nc2cc(N3CCN(C)CC3)nc(Sc3ccc(NC(=O)C4CC4)cc3)n2)n[nH]1 [Tozasertib] (partner 0.1 µM)
4. Cc1cn(-c2cc(NC(=O)c3ccc(C)c(Nc4nccc(-c5cccnc5)n4)c3)cc(C(F)(F)F)c2)cn1 [Nilotinib] + O=C(CCCCCCC(=O)Nc1ccccc1)NO [Vorinostat] (partner 1 µM)
5. Cc1cn(-c2cc(NC(=O)c3ccc(C)c(Nc4nccc(-c5cccnc5)n4)c3)cc(C(F)(F)F)c2)cn1 [Nilotinib] + COc1cc2c(Oc3ccc(NC(=O)C4(C(=O)Nc5ccc(F)cc5)CC4)cc3F)ccnc2cc1OCCCN1CCOCC1 [Foretinib] (partner 0.25 µM)

1: 0.174; 2: 0.576; 3: 0.251; 4: 0.761; 5: 0.771
